molecular target: PA ATP synthase (Pseudomonas aeruginosa, UniProt Q9HT15); construct: a whole operon plasmid that expresses; made in house; host or cells: Escherichia coli DK8 (K-12 strain lacking the unc operon) transformed with pASH20; used as inverted membrane vesicles, not purified; experiment: Inhibition of NADH-driven PA ATP synthesis activity in DK8/pASH20 inverted membrane vesicles (end-point luciferin/luciferase assay); assay type: biochemical; settings: PA ATP synthase IC50 (absolute), NADH-driven ATP synthesis, EC DK8/pASH20 inverted membrane vesicles
pIC50: −log10 of the molar value.
pIC50 vs 4: at or above is T, below is F.

{"columns": ["MOLECULAR_STRING", "CLASS"],
 "data": [
  ["CSc1nc2ccccc2cc1CNCCc1cnc[nH]1", "T"],
  ["Cc1cc(C)nc(CCNCc2cc3ccccc3nc2SCc2ccccc2)n1", "T"],
  ["c1ccc(CSc2nc3ccccc3cc2CNCCC2CCN(C3CCCC3)CC2)cc1", "T"],
  ["CSc1nc2ccccc2cc1CNCCc1nc(C)cc(C)n1", "F"],
  ["CCN1CCC(CCNCc2cc3ccccc3nc2SCc2ccccc2)CC1", "T"]
]}

---

system: PA electron transport chain; test: Electron transport activity (ACMA fluorescence quenching) in PA 9027 inverted membrane vesicles; assay type: biochemical, Pseudomonas aeruginosa; details: 32 µg/mL
Below: a set of entries, each annotated with reported % PA ETC Inhibition at 32 µg/mL.

{"columns": ["MOLECULAR_STRING", "% PA ETC Inhibition at 32 µg/mL [%]"],
 "data": [
  ["CSc1nc2ccccc2cc1CNCCCN(C)C", 54],
  ["CSc1nc2ccccc2cc1CNCCc1cccn1C", 65],
  ["Cc1cc(C)nc(CCNCc2cc3ccccc3nc2SCc2ccccc2)n1", 67],
  ["CSc1nc2ccccc2cc1CNCCCCN(C)C", 72],
  ["CSc1nc2ccccc2cc1CNCCCCCN(C)C", 74],
  ["CCN1CCC(CCNCc2cc3ccccc3nc2SC)CC1", 74],
  ["Cn1cccc1CCNCc1cc2ccccc2nc1SCc1ccccc1", 62]
]}

---

# MIC per record follows
tested on: PA 9027; test: Antimicrobial susceptibility, broth microdilution MIC; format: cell-based; conditions: Pseudomonas aeruginosa, read-out: MIC PA 9027

{"columns": ["COMPOUND", "MIC"],
 "data": [
  ["CNC(C)C1CCC(N)C(OC2C(N)CC(N)C(OC3OCC(C)(O)C(NC)C3O)C2O)O1 (stereo not shown) [gentamicin, reference compound]", "2 to 4 µg/mL"],
  ["CN(C)CCCNCc1cc2ccccc2nc1SCc1ccccc1", "> 128 µg/mL"],
  ["CCN1CCC(CCNCc2cc3ccccc3nc2SCc2ccccc2)CC1", "> 128 µg/mL"],
  ["CN(C)CCCCCNCc1cc2ccccc2nc1SCc1ccccc1", "> 128 µg/mL"],
  ["CN(C)CCCCNCc1cc2ccccc2nc1SCc1ccccc1", "> 128 µg/mL"],
  ["c1ccc(CSc2nc3ccccc3cc2CNCCc2cnc[nH]2)cc1", "> 128 µg/mL"],
  ["c1ccc(CSc2nc3ccccc3cc2CNCCC2CCN(C3CCCC3)CC2)cc1", "> 128 µg/mL"]
]}

---

experiment: Solubility in the assay medium; assay type: physicochemical; conditions: assay medium of the ATP synthesis inhibition assay; read-out: Solubility in the assay medium (poor/insoluble above this concentration)

{"columns": ["MOLECULAR_STRING", "solubility"],
 "data": [
  ["CN(C)c1ccc(CNCc2cc3ccccc3nc2SCc2ccccc2)cc1", "≤ 16 µg/mL"]
]}

---

target: PA ATP synthase (Pseudomonas aeruginosa); construct: a whole operon plasmid that expresses; made in house; host or cells: Escherichia coli DK8 (K-12 strain lacking the unc operon) transformed with pASH20; used as inverted membrane vesicles, not purified; experiment: Inhibition of NADH-driven PA ATP synthesis activity in DK8/pASH20 inverted membrane vesicles (end-point luciferin/luciferase assay); assay type: biochemical; conditions: PA ATP synthase IC50 (absolute), NADH-driven ATP synthesis, EC DK8/pASH20 inverted membrane vesicles
Listed below: IC50 values for each entry.

{"columns": ["COMPOUND", "SYSTEM_TESTED", "IC50"],
 "data": [
  ["CSc1nc2ccccc2cc1CNCc1ccc(N(C)C)cc1 [Compound 11]", "PA ATP synthase (Pseudomonas aeruginosa)", "14.8 µM"],
  ["CN(C)CCCNCc1cc2ccccc2nc1SCc1ccccc1 [Compound 6]", "PA ATP synthase (Pseudomonas aeruginosa)", "16.4 µM"],
  ["CSc1nc2ccccc2cc1CNCCC1CCN(C2CCCC2)CC1 [Compound 15]", "PA ATP synthase (Pseudomonas aeruginosa)", "54.7 µM"],
  ["CSc1nc2ccccc2cc1CNCCCCCN(C)C [Compound 9]", "PA ATP synthase (Pseudomonas aeruginosa)", "59.8 µM"],
  ["CSc1nc2ccccc2cc1CNCCc1cccn1C [Compound 17]", "PA ATP synthase (Pseudomonas aeruginosa)", "16.1 µM"],
  ["CSc1nc2ccccc2cc1CNCCCCN(C)C [Compound 7]", "PA ATP synthase (Pseudomonas aeruginosa)", "224 µM"],
  ["CSc1nc2ccccc2cc1CNCCCN(C)C [Compound 5]", "PA ATP synthase (Pseudomonas aeruginosa)", "149 µM"],
  ["CCN1CCC(CCNCc2cc3ccccc3nc2SC)CC1 [Compound 13]", "PA ATP synthase (Pseudomonas aeruginosa)", "114 µM"],
  ["CN(C)CCCCNCc1cc2ccccc2nc1SCc1ccccc1 [Compound 8]", "PA ATP synthase (Pseudomonas aeruginosa)", "2.63 µM"]
]}

---

test system: BAA 2109 (MDRPA clinical isolate); experiment: Antimicrobial susceptibility, broth microdilution MIC; assay type: cell-based, Pseudomonas aeruginosa; details: Pseudomonas aeruginosa, BAA2109; >85% reduction in growth at OD 590 nm; n = 3; read-out: MIC BAA 2109

{"columns": ["MOLECULE", "MIC"],
 "data": [
  ["CNC(C)C1CCC(N)C(OC2C(N)CC(N)C(OC3OCC(C)(O)C(NC)C3O)C2O)O1 (stereo not drawn) [gentamicin, reference compound]", "2 µg/mL"],
  ["c1ccc(CSc2nc3ccccc3cc2CNCCc2cnc[nH]2)cc1", "64 µg/mL"],
  ["CN(C)CCCCCNCc1cc2ccccc2nc1SCc1ccccc1", "128 µg/mL"],
  ["CN(C)CCCNCc1cc2ccccc2nc1SCc1ccccc1", "64 µg/mL"],
  ["CN(C)CCCCNCc1cc2ccccc2nc1SCc1ccccc1", "64 µg/mL"],
  ["O=C(N[C@H](CO)[C@H](O)c1ccc([N+](=O)[O-])cc1)C(Cl)Cl [chloramphenicol, reference compound]", "128 µg/mL"]
]}
